Taken from paper PMC7567794.

Target: T1, tissue factor (S33 to E251) (Homo sapiens, UniProt P13726)
T1 construct: tissue factor (TF), residues S33 to E251; the antigen of the antibody D3h44 in PDB 1JPS; The tag was removed with Ulp1; tag-free TF was used; Antigen residues named in the text (S202, K169, P194, I152) follow the numbering of PDB 1JPS, not that of the construct limits; also called TF; antigen; source: E. coli BL21 (DE3), purified (Ni-NTA, SEC); not shown: His6, N-terminal, cleaved; SUMO, …
T1 sequence (P13726 33-251): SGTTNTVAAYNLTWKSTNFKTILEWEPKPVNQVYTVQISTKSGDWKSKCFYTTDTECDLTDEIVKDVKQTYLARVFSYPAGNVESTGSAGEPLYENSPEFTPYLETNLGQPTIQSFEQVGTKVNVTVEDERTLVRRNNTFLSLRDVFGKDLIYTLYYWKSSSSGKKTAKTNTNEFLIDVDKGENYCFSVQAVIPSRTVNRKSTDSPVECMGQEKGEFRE
Test: SPR; Biacore 8K; TF immobilised on a CM5 chip by amine coupling (450-750 response units); Fab as analyte; single-cycle kinetics, association 120 s, dissociation 1800 s, no regeneration; PBS with 0.005% Tween-20; three measurements
Details: both partners purified
observable: Kd (nM)

• D3h44 Fab H-I59H (Fab, V domains shown, as the heavy chain of m2 (PDB 1JPS chain H) with the stated change; as the light chain of m2 (PDB 1JPS chain L); Tag as for m2; source: ExpiCHO, purified (Ni-NTA, SEC)) VH: EVQLVESGGGLVQPGGSLRLSCAASGFNIKEYYMHWVRQAPGKGLEWVGLIDPEQGNTHYDPKFQDRATISADNSKNTAYLQMNSLRAEDTAVYYCARDTAAYFDYWGQGTLVTVSS VL: DIQMTQSPSSLSASVGDRVTITCRASRDIKSYLNWYQQKPGKAPKVLIYYATSLAEGVPSRFSGSGSGTDYTLTISSLQPEDFATYYCLQHGESPWTFGQGTKVEIK = 15
